Where these numbers come from: patent US20230183218A1

- TEST TARGET: Rat M4 (Rattus norvegicus, UniProt P08485)
- Sequence (P08485 whole entry): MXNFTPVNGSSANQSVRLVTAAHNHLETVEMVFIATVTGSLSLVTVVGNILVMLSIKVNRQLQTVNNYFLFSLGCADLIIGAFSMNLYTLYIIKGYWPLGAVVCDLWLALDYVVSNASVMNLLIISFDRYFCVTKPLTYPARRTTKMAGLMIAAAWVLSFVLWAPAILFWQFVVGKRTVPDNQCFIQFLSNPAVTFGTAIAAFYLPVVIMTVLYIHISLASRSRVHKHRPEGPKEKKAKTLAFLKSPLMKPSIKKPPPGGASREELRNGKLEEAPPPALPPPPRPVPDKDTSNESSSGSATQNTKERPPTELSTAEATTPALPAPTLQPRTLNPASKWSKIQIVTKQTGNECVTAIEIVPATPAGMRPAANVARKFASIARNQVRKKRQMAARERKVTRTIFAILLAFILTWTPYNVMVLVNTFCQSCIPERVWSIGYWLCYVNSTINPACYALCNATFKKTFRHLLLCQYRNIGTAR
- MEASUREMENT DESCRIPTION: mAChR M4 cell-based functional assay (calcium flux, antagonist mode vs EC80 acetylcholine), rat M4/Gqi5/CHO-K1 cells
- ASSAY SETUP: decrease of response elicited by EC80 acetylcholine; rat M4/Gqi5 CHO-K1 cells
Checkbox rule: IC50 lower than 3000 nM = 1; IC50 not lower than 3000 nM = 0.

Task item: Report whether reported IC50 is lower than 3000 nM (strictly) for `O=S(=O)(c1ccc(N[C@H]2C[C@@H]3CN(Cc4ccccn4)C[C@@H]3C2)nn1)C1CCCCC1`
Reply: 0

====

- TEST TARGET: Rat M4 (Rattus norvegicus)
- Construct: expressed in transfected cells; host or cells: CHO-K1 (ATCC), stably co-expressing chimeric G protein Gqi5
- MEASUREMENT DESCRIPTION: mAChR M4 cell-based functional assay (calcium flux, antagonist mode vs EC80 acetylcholine), rat M4/Gqi5/CHO-K1 cells
- ASSAY SETUP: CHO-K1; % ACh maximum at 30 μM; rat M4; read-out: Rat M4 Emin (%)
Response field label: string, one of criterion met (remaining activity at 30 µM strictly below 10%) or criterion not met.

Would you please look over these solved cases?
* Cc1cc(CN2C[C@H]3C[C@H](Nc4ccc(S(=O)(=O)c5ccccc5)nn4)C[C@H]3C2)ccc1F | criterion met
* CC1(C)C(=O)N(C2CC2)c2nnc(N[C@H]3C[C@@H]4CN(CC5CCOCC5)C[C@@H]4C3)cc21 | criterion not met
* COCCCN1C[C@H]2C[C@H](Nc3ccc(-c4cc(F)ccc4Cl)nn3)C[C@H]2C1 | criterion met
* Fc1ccc(Cl)c(-c2ccc(N[C@H]3C[C@@H]4CN(C5CCCCC5)C[C@@H]4C3)nn2)c1 | criterion met
* Fc1ccc(Cl)c(-c2ccc(N[C@H]3C[C@@H]4CN(C5CCC6(CCCCC6)CC5)C[C@@H]4C3)nn2)c1 | criterion met
* Cc1cc2c(cc1CN1C[C@H]3C[C@H](Nc4ccc(S(=O)(=O)c5ccccc5)nn4)C[C@H]3C1)OCO2 | criterion not met
* O=S(=O)(c1ccccc1)c1ccc(N[C@H]2C[C@@H]3CN(Cc4ncccc4C(F)(F)F)C[C@@H]3C2)nn1 | criterion not met
* CC1(C)CCC(N2C[C@H]3C[C@H](Nc4ccc(-c5cc(F)ccc5Cl)nn4)C[C@H]3C2)CC1 | criterion met
* CCCN1C(=O)C(C)(C)c2cc(N[C@H]3C[C@@H]4CN(CCC(C)(C)C)C[C@@H]4C3)nnc21 | criterion met
* CC1(C)CC(N2C[C@H]3C[C@H](Nc4ccc(-c5ccc6nccn6c5)nn4)C[C@H]3C2)CCO1 (some centres unmarked) | criterion met

Task item: Would you kindly verify if remaining activity at 30 µM of `Fc1ccc(Cl)c(-c2ccc(N[C@H]3C[C@@H]4CN(C5CCC(F)(F)CC5)C[C@@H]4C3)nn2)c1` is strictly less than 10%?
Reply: criterion not met

Task item: Does Cc1nn(C)cc1-c1ccc(N[C@H]2C[C@@H]3CN(C4CCOC(C)(C)C4)C[C@@H]3C2)nn1 (some centres unmarked) have remaining activity at 30 µM strictly under 10%?
Reply: criterion not met

Task item: State whether 10% exceeds remaining activity at 30 µM recorded for `O=S(=O)(c1ccc(N[C@H]2C[C@@H]3CN(Cc4ccccn4)C[C@@H]3C2)nn1)C1CCCCC1` .
Reply: criterion not met

Task item: A record lists `Fc1ccc(Cl)c(-c2ccc(N[C@H]3C[C@@H]4CN(C5CCSCC5)C[C@@H]4C3)nn2)c1` . Is its remaining activity at 30 µM below 10%?
Reply: criterion met

====

- TEST TARGET: Human M4 (Homo sapiens)
- MEASUREMENT DESCRIPTION: mAChR M4 cell-based functional assay (calcium flux, antagonist mode vs EC80 acetylcholine), human M4/Gqi5/CHO-K1 cells
- ASSAY SETUP: decrease of response elicited by EC80 acetylcholine; human M4/Gqi5 CHO-K1 cells
# maps each entry to its pIC50
On this scale, pIC50 is minus log10 of a concentration expressed in M (mol/L).

- CC(C)(C)CCN1C[C@H]2C[C@H](Nc3ccc(S(=O)(=O)c4ccccc4)nn3)C[C@H]2C1: 7.74
- CC1(C)CC(N2C[C@H]3C[C@H](Nc4ccc(-c5cccc(F)c5)nn4)C[C@H]3C2)CCO1 (stereo partly shown): 8.03
- COCCCN1C[C@H]2C[C@H](Nc3ccc(-c4cc(F)ccc4Cl)nn3)C[C@H]2C1: 7.37

Now let's try a different one.
Task item: Item under review: [O-][S+](c1ccccc1)c1ccc(N[C@H]2C[C@@H]3CN(CC4CCOCC4)C[C@@H]3C2)nn1 (stereo partly shown) . Reported pIC50?
Reply: 7.24

====

Measured remaining activity at 30 µM, listed per entry.
- TEST TARGET: Rat M4 (Rattus norvegicus, UniProt P08485)
- Construct: expressed in transfected cells; host or cells: CHO-K1 (ATCC), stably co-expressing chimeric G protein Gqi5
- MEASUREMENT DESCRIPTION: mAChR M4 cell-based functional assay (calcium flux, antagonist mode vs EC80 acetylcholine), rat M4/Gqi5/CHO-K1 cells
- ASSAY SETUP: CHO-K1; % ACh maximum at 30 μM; rat M4; read-out: Rat M4 Emin (%)
Could you give the number and then its unit, please?

- Cc1cc(Br)cnc1CN1C[C@H]2C[C@H](Nc3ccc(S(=O)(=O)C4CCCCC4)nn3)C[C@H]2C1: 3%
- CC1(C)CC(N2C[C@H]3C[C@H](Nc4ccc([S+]([O-])c5ccccc5)nn4)C[C@H]3C2)CCO1 (stereo partly drawn): 10%

Task item: What measured remaining activity at 30 µM goes with `O=S1(=O)CCC(N2C[C@H]3C[C@H](Nc4ccc(-c5cc(F)ccc5Cl)nn4)C[C@H]3C2)CC1` ?
Reply: 42%

====

- TEST TARGET: Human M4 (Homo sapiens)
- Sequence (P08173 1-479): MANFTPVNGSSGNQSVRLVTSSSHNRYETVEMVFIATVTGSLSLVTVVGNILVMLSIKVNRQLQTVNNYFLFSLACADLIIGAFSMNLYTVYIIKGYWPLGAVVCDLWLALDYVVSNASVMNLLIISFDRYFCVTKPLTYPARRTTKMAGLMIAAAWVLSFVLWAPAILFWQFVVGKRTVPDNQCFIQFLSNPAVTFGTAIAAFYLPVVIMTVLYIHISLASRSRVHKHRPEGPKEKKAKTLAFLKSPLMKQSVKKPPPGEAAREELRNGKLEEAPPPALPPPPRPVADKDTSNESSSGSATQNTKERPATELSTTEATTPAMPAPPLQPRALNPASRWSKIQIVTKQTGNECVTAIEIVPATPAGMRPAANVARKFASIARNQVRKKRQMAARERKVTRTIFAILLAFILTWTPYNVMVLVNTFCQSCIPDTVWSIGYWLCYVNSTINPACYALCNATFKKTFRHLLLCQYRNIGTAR
- MEASUREMENT DESCRIPTION: mAChR M4 cell-based functional assay (calcium flux, antagonist mode vs EC80 acetylcholine), human M4/Gqi5/CHO-K1 cells
- ASSAY SETUP: decrease of response elicited by EC80 acetylcholine; human M4/Gqi5 CHO-K1 cells
PROPERTY MEASURED: IC50 (nM)
Report the figure in nM without appending any unit label.

Worked examples, 8 molecules total:
- O=C(Nc1cccc(F)c1)c1ccc(N[C@H]2C[C@@H]3CN(CC4CCOCC4)C[C@@H]3C2)nn1: 713
- Cc1cc(CN2C[C@H]3C[C@H](Nc4ccc([S+]([O-])c5ccccc5)nn4)C[C@H]3C2)ccc1F (some centres unmarked): 242
- CC1(C)CC(N2C[C@H]3C[C@H](Nc4ccc(-c5ccc(F)cc5)nn4)C[C@H]3C2)CCO1 (some centres unmarked): 32.9
- O=C(Nc1ccccc1F)c1ccc(N[C@H]2C[C@@H]3CN(CC4CCOCC4)C[C@@H]3C2)nn1: 355
- Cn1cc2cc(-c3ccc(N[C@H]4C[C@@H]5CN(C6CCOC(C)(C)C6)C[C@@H]5C4)nn3)ccc2n1 (some centres unmarked): 9.53
- O=S(=O)(c1ccccc1)c1ccc(N[C@H]2C[C@@H]3CN(Cc4ccc5c(c4)OC(F)(F)O5)C[C@@H]3C2)nn1: 1000
- CC1(C)CC(N2C[C@H]3C[C@H](Nc4ccc(-c5cc(F)ccc5Cl)nn4)C[C@H]3C2)CC(C)(C)O1: 15
- CC1(C)CC(N2C[C@H]3C[C@H](Nc4ccc(-c5ccc6nccn6c5)nn4)C[C@H]3C2)CCO1 (some centres unmarked): 36.2

Task item: Request the reported IC50 associated with `O=S(=O)(c1ccc(N[C@H]2C[C@@H]3CN(CC4CCOCC4)C[C@@H]3C2)nn1)C1CCCCC1`
Reply: 7.75

Task item: IC50 lookup needed for Fc1ccc(Cl)c(-c2ccc(N[C@H]3C[C@@H]4CN(C5CCCOC5)C[C@@H]4C3)nn2)c1 (some centres unmarked) , thanks.
Reply: 80.2

Task item: State the recorded IC50 for this entry: `Fc1ccc(Cl)c(-c2ccc(N[C@H]3C[C@@H]4CN(C5COC5)C[C@@H]4C3)nn2)c1`
Reply: 5030
